Tested on: human SMAD7 mRNA
EXPERIMENT_DESCRIPTION: Antisense inhibition of human SMAD7 mRNA expression in Hep3B cells by 3-10-3 cEt gapmers, 10,000 nM, electroporation (Example 2)
Format: cell-based
CONDITION_CONTEXT: Hep3B cells, electroporation with 10,000 nM antisense oligonucleotide, approximately 24 hours, RTS5062, percent inhibition of SMAD7 mRNA relative to untreated control cells
Strand notation (5' to 3'): a small letter for the sugar, then the base; units joined by * are phosphorothioate-linked, units joined directly phosphodiester-linked; [ ] holds rarer units or linkages, { } end groups; capitals alone tell only the bases. k = constrained ethyl (cEt); [5mC] = 5-methylcytosine; d = 2'-deoxy (DNA)
PARAMETER: % Inhibition (%)

1) 790714 (kA*kG*k[5mC]*d[5mC]*dA*dG*dT*dT*dA*dA*dT*d[5mC]*dA*kT*kT*kA; antisense) [compound 790714]: 11
2) 799514 (antisense kT*k[5mC]*kG*dG*dA*dG*dT*dT*dT*d[5mC]*d[5mC]*dT*d[5mC]*kA*k[5mC]*kT) [compound 799514]: 40
3) 799764 (antisense kA*k[5mC]*kG*d[5mC]*dT*dA*dA*dG*dG*dA*dA*dA*dA*kA*kG*k[5mC]) [compound 799764]: 19

###

EXPERIMENT_DESCRIPTION: Hematology assays after oral gavage in CD-1 mice (Example 7)
Format: in vivo
CONDITION_CONTEXT: 500 mg/kg oral gavage once daily for 4 weeks
PARAMETER: MCH (pg)

1) 830037 (antisense CTATTGGCTGATCTGG; 3-10-3 cEt gapmer, further chemistry not given here) [compound 830037]: 15.4
2) 830025 (antisense TTTGTAAATCGAAAGC; 3-10-3 cEt gapmer, further chemistry not given here) [compound 830025]: 14.9
3) 829994 (GGAGGCAGGGCCGCGA; 3-10-3 cEt gapmer, further chemistry not given here) [compound 829994]: 15.1
4) 790615 (CCAATGAGAATGCTTC; 3-10-3 cEt gapmer, further chemistry not given here) [compound 790615]: 15.0
5) 798781 (CGTAAGATTCACAGCA; 3-10-3 cEt gapmer, further chemistry not given here) [compound 798781]: 15.1
6) 830121 (AGAATCAAGCCCTGGC; 3-10-3 cEt gapmer, further chemistry not given here) [compound 830121]: 15.0

###

Below, each entry is listed alongside its reported MCH.
EXPERIMENT_DESCRIPTION: Hematology assays after subcutaneous administration in CD-1 mice (Example 6)
Type: in vivo
CONDITION_CONTEXT: 50 mg/kg subcutaneous twice weekly for 7 weeks
Strand notation (5' to 3'): a small letter for the sugar, then the base; units joined by * are phosphorothioate-linked, units joined directly phosphodiester-linked; [ ] holds rarer units or linkages, { } end groups; capitals alone tell only the bases. k = constrained ethyl (cEt); [5mC] = 5-methylcytosine; d = 2'-deoxy (DNA)
PARAMETER: MCH

1. 798781 (CGTAAGATTCACAGCA; 3-10-3 cEt gapmer, further chemistry not given here) [compound 798781]: 14.9 pg
2. 830025 (antisense TTTGTAAATCGAAAGC; 3-10-3 cEt gapmer, further chemistry not given here) [compound 830025]: 15.7 pg
3. 830027 (antisense kA*kA*k[5mC]*d[5mC]*dA*dT*dT*dT*dA*dT*d[5mC]*dT*dG*kG*kT*kG) [compound 830027]: 15.1 pg
4. 829994 (GGAGGCAGGGCCGCGA; 3-10-3 cEt gapmer, further chemistry not given here) [compound 829994]: 15.5 pg
5. 830121 (AGAATCAAGCCCTGGC; 3-10-3 cEt gapmer, further chemistry not given here) [compound 830121]: 15.3 pg
6. 799144 (antisense kT*kT*kG*dG*dG*dT*dT*dA*dT*dG*dA*d[5mC]*dG*kG*kA*k[5mC]) [compound 799144]: 15.2 pg
7. 790615 (CCAATGAGAATGCTTC; 3-10-3 cEt gapmer, further chemistry not given here) [compound 790615]: 14.7 pg

###

Tested on: human SMAD7 mRNA
EXPERIMENT_DESCRIPTION: Antisense inhibition of human SMAD7 mRNA expression in Hep3B cells by 5-10-5 MOE gapmers, single concentration, electroporation, RT-PCR (Example 1, Study 1 and 2)
Type: cell-based
CONDITION_CONTEXT: electroporation with 15,000 nM antisense oligonucleotide (Study 2), 5-10-5 MOE gapmers targeting SEQ ID NO: 1 and 2
Strand notation (5' to 3'): a small letter for the sugar, then the base; units joined by * are phosphorothioate-linked, units joined directly phosphodiester-linked; [ ] holds rarer units or linkages, { } end groups; capitals alone tell only the bases. e = 2'-O-(2-methoxyethyl) (MOE); [5mC] = 5-methylcytosine; d = 2'-deoxy (DNA)
PARAMETER: % inhibition of SMAD7 mRNA expression (%)

1. 771656 (antisense eG*eT*eT*eA*eA*dA*dG*dT*d[5mC]*dT*dA*dA*dA*d[5mC]*dA*eT*eG*e[5mC]*eT*e[5mC]) [compound 771656]: 0
2. 771624 (antisense eT*eT*eA*eA*e[5mC]*dA*d[5mC]*dA*d[5mC]*dA*dG*dG*dA*dT*dG*eG*eG*eA*eG*e[5mC]) [compound 771624]: 0
3. 771657 (antisense e[5mC]*eT*eT*eA*eT*dG*dT*dT*dA*dA*dA*dG*dT*d[5mC]*dT*eA*eA*eA*e[5mC]*eA) [compound 771657]: 6
4. 771625 (antisense eG*e[5mC]*eT*eT*eA*dA*d[5mC]*dA*d[5mC]*dA*d[5mC]*dA*dG*dG*dA*eT*eG*eG*eG*eA) [compound 771625]: 48
5. 582468 (antisense eG*e[5mC]*e[5mC]*eA*eA*dT*dA*dT*d[5mC]*dA*dT*dA*dA*d[5mC]*d[5mC]*e[5mC]*eA*eA*eG*e[5mC]) [compound 582468]: 0
6. 771626 (antisense eG*e[5mC]*eA*eG*eA*dG*d[5mC]*dT*dT*dA*dA*d[5mC]*dA*d[5mC]*dA*e[5mC]*eA*eG*eG*eA) [compound 771626]: 35
7. 771642 (antisense eA*eG*eA*eA*eG*dA*dG*dT*dT*dA*dG*dG*dT*dG*dT*e[5mC]*eA*eG*e[5mC]*e[5mC]) [compound 771642]: 36
8. 771610 (antisense eA*e[5mC]*e[5mC]*eT*eG*dA*dT*dG*dT*d[5mC]*dA*d[5mC]*d[5mC]*dA*dG*eG*eG*e[5mC]*eA*eG) [compound 771610]: 52
9. 771608 (antisense e[5mC]*eT*eG*eG*eG*dT*dG*dA*dG*d[5mC]*dA*dA*dT*dA*d[5mC]*eT*eG*eT*eG*eA) [compound 771608]: 34
10. 771602 (antisense eG*eG*eA*eG*eA*dT*d[5mC]*d[5mC]*dA*dG*dG*dA*dG*d[5mC]*dA*eG*eA*eT*eG*eG) [compound 771602]: 39
11. 771616 (antisense eT*eG*e[5mC]*eT*eG*dA*dG*d[5mC]*dT*dG*dG*dT*dT*dT*dT*e[5mC]*eT*eA*eA*eG) [compound 771616]: 0
12. 771688 (antisense e[5mC]*eG*eT*eT*eT*dA*dA*dT*dG*dG*dA*dA*d[5mC]*dA*dT*eA*eA*eA*e[5mC]*eT) [compound 771688]: 0

###

EXPERIMENT_DESCRIPTION: Oligonucleotide concentration in tissues by LC-MS/MS after subcutaneous administration in beagle dogs (Example 8)
Format: in vivo
CONDITION_CONTEXT: 30 mg/kg subcutaneous, 48 hours after the last dose, proximal colon
Below, each entry is listed alongside its reported Full length oligonucleotide, Proximal colon.
PARAMETER: Full length oligonucleotide, Proximal colon (µg/g)

1. 830121 (AGAATCAAGCCCTGGC; 3-10-3 cEt gapmer, further chemistry not given here) [compound 830121]: 19
2. 830025 (antisense TTTGTAAATCGAAAGC; 3-10-3 cEt gapmer, further chemistry not given here) [compound 830025]: 31
3. 798781 (CGTAAGATTCACAGCA; 3-10-3 cEt gapmer, further chemistry not given here) [compound 798781]: 73
4. 790615 (CCAATGAGAATGCTTC; 3-10-3 cEt gapmer, further chemistry not given here) [compound 790615]: 17
5. 829994 (GGAGGCAGGGCCGCGA; 3-10-3 cEt gapmer, further chemistry not given here) [compound 829994]: 11
6. 830037 (antisense CTATTGGCTGATCTGG; 3-10-3 cEt gapmer, further chemistry not given here) [compound 830037]: 86

###

EXPERIMENT_DESCRIPTION: Body and organ weights after oral gavage in CD-1 mice (Example 7)
Type: in vivo
CONDITION_CONTEXT: 500 mg/kg oral gavage once daily for 4 weeks, end of study
Below, each entry is listed alongside its reported Body weight.
PARAMETER: Body weight

1. 790615 (CCAATGAGAATGCTTC; 3-10-3 cEt gapmer, further chemistry not given here) [compound 790615]: 35 g
2. 830037 (antisense CTATTGGCTGATCTGG; 3-10-3 cEt gapmer, further chemistry not given here) [compound 830037]: 35 g
3. 829994 (GGAGGCAGGGCCGCGA; 3-10-3 cEt gapmer, further chemistry not given here) [compound 829994]: 35 g
4. 830121 (AGAATCAAGCCCTGGC; 3-10-3 cEt gapmer, further chemistry not given here) [compound 830121]: 34 g
5. 830025 (antisense TTTGTAAATCGAAAGC; 3-10-3 cEt gapmer, further chemistry not given here) [compound 830025]: 35 g
6. 798781 (CGTAAGATTCACAGCA; 3-10-3 cEt gapmer, further chemistry not given here) [compound 798781]: 35 g

All values here come from patent US10517889B2.
